- assayed.system: H1 histamine receptor (Homo sapiens, UniProt P35367)
- Sequence (P35367 whole entry): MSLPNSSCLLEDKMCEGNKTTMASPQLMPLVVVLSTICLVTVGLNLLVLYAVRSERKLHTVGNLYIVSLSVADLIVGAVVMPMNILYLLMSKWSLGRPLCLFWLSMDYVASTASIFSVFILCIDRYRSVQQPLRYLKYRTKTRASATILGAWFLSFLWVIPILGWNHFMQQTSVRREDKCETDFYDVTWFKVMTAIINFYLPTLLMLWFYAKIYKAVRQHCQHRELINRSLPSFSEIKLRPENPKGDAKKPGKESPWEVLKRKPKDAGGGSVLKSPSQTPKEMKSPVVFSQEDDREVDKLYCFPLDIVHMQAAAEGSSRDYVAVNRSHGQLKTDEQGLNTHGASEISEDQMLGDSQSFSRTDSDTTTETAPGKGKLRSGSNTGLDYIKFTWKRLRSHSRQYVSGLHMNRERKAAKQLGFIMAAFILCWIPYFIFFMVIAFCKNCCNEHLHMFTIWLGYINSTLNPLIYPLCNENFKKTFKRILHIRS
pKi: −log10 of the molar value.

[
  {
    "compound": "C[N+]1([O-])CCN(C2=Nc3cc(Cl)ccc3Nc3ccccc32)CC1 [CNO, clozapine-N-oxide]",
    "pKi": "> 7.00"
  }
]

---

- assay: in vivo
- condition.label: mouse, brain (cortical tissue), ip, 3.5 mg/kg

[
  {
    "compound": "CN1CCN(C2=Nc3cc(Cl)ccc3Nc3ccccc32)CC1",
    "concentration at 15 min": "~427 nM"
  }
]

---

- assay: in vivo
- condition.label: mouse, plasma, ip, 1 mg/kg

[
  {
    "compound": "CN1CCN(C2=Nc3cc(Cl)ccc3Nc3ccccc32)CC1",
    "concentration at 15 min [nM]": 344
  }
]

---

- assay: in vivo
- condition.label: mouse, CSF, ip, 1 mg/kg
experimental.endpoint: concentration at 15 min

[
  {
    "compound": "CN1CCN(C2=Nc3cc(Cl)ccc3Nc3ccccc32)CC1",
    "experimental.endpoint": "concentration at 15 min",
    "reported.value": "1.9 nM"
  }
]

---

- assayed.system: human M4 muscarinic receptor (Homo sapiens, UniProt P08173)
- Sequence (P08173 whole entry): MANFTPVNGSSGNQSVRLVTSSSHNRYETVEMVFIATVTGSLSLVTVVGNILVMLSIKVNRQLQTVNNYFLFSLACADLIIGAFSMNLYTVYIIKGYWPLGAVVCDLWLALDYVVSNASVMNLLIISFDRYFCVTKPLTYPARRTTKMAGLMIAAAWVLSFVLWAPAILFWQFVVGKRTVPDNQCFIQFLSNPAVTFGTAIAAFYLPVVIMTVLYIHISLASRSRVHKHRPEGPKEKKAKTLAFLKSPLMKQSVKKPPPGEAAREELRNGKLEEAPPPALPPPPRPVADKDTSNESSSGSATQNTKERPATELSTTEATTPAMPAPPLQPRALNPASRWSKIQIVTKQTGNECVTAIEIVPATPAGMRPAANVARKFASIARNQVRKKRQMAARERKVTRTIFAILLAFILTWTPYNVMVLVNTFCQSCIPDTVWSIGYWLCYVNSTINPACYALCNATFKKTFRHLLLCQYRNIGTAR
- assay: Potency at parent receptor of hM4Di
- condition.label: data not shown
pEC50: −log10 of the molar value.

[
  {
    "compound": "C[N+]1([O-])CCN(C2=Nc3cc(Cl)ccc3Nc3ccccc32)CC1 [CNO, clozapine-N-oxide]",
    "assayed.system": "human M4 muscarinic receptor (Homo sapiens, UniProt P08173)",
    "pEC50": 5.20
  }
]

---

- assay: in vivo
- condition.label: mouse, brain, ip, 1 mg/kg

[
  {
    "compound": "CN1CCN(C2=Nc3cc(Cl)ccc3Nc3ccccc32)CC1",
    "Kp at 15 min": "~6"
  }
]

---

- assay: in vivo
- condition.label: mouse, brain, ip, 1 mg/kg
experimental.endpoint: concentration at 15 min (nM)

[
  {
    "compound": "CN1CCN(C2=Nc3cc(Cl)ccc3Nc3ccccc32)CC1",
    "reported.value": 2060
  }
]

---

- assay: in vivo
- condition.label: mouse, plasma, ip, 1 mg/kg

[
  {
    "compound": "CN1CCN(C2=Nc3cc(Cl)ccc3Nc3ccccc32)CC1",
    "measurement.unit": "nM",
    "concentration at 60 min": 123
  }
]

---

- assay: in vivo
- condition.label: C57BL/6J, mouse, CSF, ip, 1 mg/kg
experimental.endpoint: Kp

[
  {
    "compound": "CN1CCN(C2=Nc3cc(Cl)ccc3Nc3ccccc32)CC1",
    "reported.value": "~0.01"
  }
]

---

- assayed.system: 5-HT2B serotonin receptor (Homo sapiens)
- Sequence (P41595 whole entry): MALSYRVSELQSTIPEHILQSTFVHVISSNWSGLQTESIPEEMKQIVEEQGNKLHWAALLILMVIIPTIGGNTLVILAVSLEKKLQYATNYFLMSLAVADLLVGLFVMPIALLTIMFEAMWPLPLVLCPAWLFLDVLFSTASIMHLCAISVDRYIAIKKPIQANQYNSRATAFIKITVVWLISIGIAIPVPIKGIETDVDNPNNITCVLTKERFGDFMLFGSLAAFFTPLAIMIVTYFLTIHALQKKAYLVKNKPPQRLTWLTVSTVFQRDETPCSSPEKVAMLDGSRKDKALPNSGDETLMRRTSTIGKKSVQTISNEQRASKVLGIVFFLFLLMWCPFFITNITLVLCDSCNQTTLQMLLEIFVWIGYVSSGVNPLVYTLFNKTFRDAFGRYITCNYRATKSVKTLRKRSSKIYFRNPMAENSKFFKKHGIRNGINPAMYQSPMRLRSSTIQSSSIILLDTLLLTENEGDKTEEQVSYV
pKi: −log10 of the molar value.
experimental.endpoint: pKi

[
  {
    "compound": "C[N+]1([O-])CCN(C2=Nc3cc(Cl)ccc3Nc3ccccc32)CC1 [CNO, clozapine-N-oxide]",
    "assayed.system": "5-HT2B serotonin receptor (Homo sapiens)",
    "experimental.endpoint": "pKi",
    "reported.value": "> 7.00"
  }
]

---

- assay: in vivo
- condition.label: mouse, plasma, brain and CSF, ip, 1 mg/kg

[
  {
    "compound": "CN1CCN(C2=Nc3cc(Cl)ccc3Nc3ccccc32)CC1",
    "measurement.unit": "min",
    "Tmax": 15
  }
]
